Here, each record is paired with measured pIC50 data.
Protocol Summary: Inhibition of Dengue virus (serotype 2) NS2B-NS3 protease preincubated with protein for 15 mins followed by Abz-Nle-Lys-Arg-Arg-Ser-3-(NO2)Tyr substrate addition measured by continuous fluorometric analysis
Set-up: species or system dengue virus type 2
Lab note — pIC50 values are minus log10 of concentrations in M.

Take a look at these entries with their results.
Smiles Str | pIC50
N=C(N)c1ccc(C[C@H](NC(=O)CCc2ccccc2)C(=O)N[C@@H](CCCCN)C(=O)N[C@H](C(N)=O)c2ccccc2)cc1 | 6.59
N=C(N)c1ccc(C[C@H](NC(=O)c2ccc(C(F)(F)F)cc2)C(=O)N[C@@H](CCCCN)C(=O)N[C@H](C(N)=O)c2ccccc2)cc1 | 6.68
NCCCC[C@H](NC(=O)[C@H](Cc1cccc(CN)c1)NC(=O)c1ccccc1)C(=O)N[C@H](C(N)=O)c1ccccc1 | 4.93

Read the next record carefully.
[Q] Requested read-out: pIC50. Entry: N=C(N)Nc1cccc([C@H](NC(=O)c2ccccc2)C(=O)N[C@@H](CCCCN)C(=O)N[C@H](C(N)=O)c2ccccc2)c1
[A] 5.51
